# protocol: yeast display, Sf9 membrane polyspecificity reagent, FACS + sequencing; frameworks hold sequencing errors
assayReadout: polyreactivity (PSR sort gate)

QVQLEESGGGLVQAGGSLRLSCAASGRTTYWYAMGWYRQAPGKERELVADISWSGGSTYYADSVKGRFTISRDNAKNTVYLQMNSLKPEDPAVYYCNAAEQKYSIYYAFDTGPYDYWGQGTQVTVSS	low polyreactivity
QVQLVESGAGLVQAGGSLRLSCAASGFIFWRNTMGWYRQAPGKERELVAVITRGGSTYYADSVKGRFTISRDNAKNTVYLQMNSLKPVDTAVYYCNADNVVEGYDRRSARASYRYYYWGQGTQVTVSS	low polyreactivity
QVQHVESGGRLVQAGGSLRLSCAASGSNWIYAMGWYRQAPGKERELVAAISVSGDRTYYADSVKGRFTISRDNAKNTVYLQMNSLKPEDTAVYYSATPPYPGRDYWGQGTEVTVSS	high polyreactivity
QVQLQESGGGLVQAGGSLRLSCAASGNIYEADIMGWYRQAPGKERELVTSITDGGSTNYADSVKGRFTISRDNAKNTVYLQMNSLKPEDTAVYYCAAIAYPDIPTSFDYNSDYSYWGQGTQVTVSS	low polyreactivity

In the following, a different sequence is considered.
Returns the measured polyreactivity (PSR sort gate) for the input sequence. Input: QVQLVESGGGLVQAGGSLRLSCAASGRTFRYYAMGWYRQAPGKERELVATISSGGSTNYADSVKGRFTISRDNAKNTVYLQMNSLKPEDTAVYYCNARRSTDPARYYWGQGTQVTVSS
high polyreactivity

###

# protocol: yeast display, Sf9 membrane polyspecificity reagent, FACS + sequencing; frameworks hold sequencing errors
assayReadout: polyreactivity (PSR sort gate)

Here is how some sequences turned out for polyreactivity (PSR sort gate).
QVQLVESGGGLVQAGGSLSLSCAATGRLFSWYTMGWYRQAPGKERELVAAISWSGTSTYYADSVKGRFTISRDNAKNTVYLQMNSLKPEDTAVYYCNKVNPANIRRSYDYWGQGTQVTVSS	high polyreactivity
QVQHVESGGGLFKAGGTLRLSCAASGRTIYPYAMVLYIQAPGKESELVAAIRWSGGSTYYADSVKGRFTISRDNSKNTVYLQMNSLKPVDTAVYYCNADWKSYRGPIVDYWGQGTQVSVSS	low polyreactivity
QVQLVESAGGLVQAGGSLSLSCAASASTFSSNAMGGYRQAPGKERELVAAITTSGGSTYYADSVKGRFTISRDNAKNTVYLQMNSLIPEDTAVYYCAADLVHAYQWSIFLYGYWGLGTQVTVSS	low polyreactivity
QVQLVESGGGLVQAGGSLRLSCAASGSTFAPNTMGWYRQAPGKERELVARITSSDGSTTYADSVKGRFTISRDNAKNTVYLQMNSLKPEDTAVYYCAADYGRRWGYDYWGQGTQVTVSS	low polyreactivity

Record polyreactivity (PSR sort gate) per entry; entries follow.
1. QVQLVESGGGLVQAGGSLRLSCAASGSIFRYNAMGWYRPAPGTERELVAAITSGDSTYYADSVKGRFTISRDNAKNTVYLHMNSLKPEDTAVYYCARRSYATYSFRFDYWGQGTQVTVSS
2. QVQLVESGGGLVQAGGSLRISCAASGSIVYPYAMGWYRQAPGKERELVAAISYSGGSTYYADSVKGSFTISRDNAKNTVYLQMNSLKPEDTAVYYCNVYAGQYGMNYWGQGTQVTVSS
3. QVQLVESGGGLVQAGGSLRLSCAASGRTFYVYAMGWYRQAPGKERELVAAITFSGGSTYYADSVKGRFTISRDNAKNPVYLQMNSLKPEDTAVYYCNRRSYVPDRFRHDSSVIYDYWGQGTQVTVSS
4. QVQLVESGGGLVQAGGSLRLSCAASGLTFYSYAMGWYRQAPGKERELVAAISSSGGNTYYADSVKGRFTISRDNAKNTVYLQMNSLKPEDTAVYYCNVYHWSRVFAIDYYWGQATQVTVSS
5. QVQLVESGGGLVQAGGSLRLSCAASGFTFSLYTKGWYRQATGKERELVADISDGGITNYADSVKGRFTISRDNAKNTVYLQMHSLKPEDTAVYYCAADYQFLFFWNLFYEDYDYWGQGTQVTVSS

["low polyreactivity", "high polyreactivity", "low polyreactivity", "high polyreactivity", "high polyreactivity"]

###

# protocol: yeast display, Sf9 membrane polyspecificity reagent, FACS + sequencing; frameworks hold sequencing errors
assayReadout: polyreactivity (PSR sort gate)

QVQLVQSGGGLVQAGGSLRLSCAASGSTFSTYAMGWYRQAPGKERELVAAISRYGGLTNYADSVKGRFTISRDNAKNTVYLQMNSLKPEDTAVYYCAARRYDTGNGYDYWGQGTQVTVSS	high polyreactivity
QVHHEETGGGLVQAGGSLRLSCSASGRTFVYYDMGWYRHATGKERQLVAAIDSSGSTYYADSVKGRFTISRDNAKNTVYLQMNSLKPEDSAVYYCGAGYWFFPYWYDYWGQGTQVTVSS	high polyreactivity
QVQLVESGGGLVQAGGSLRLSCAASGSIFARNAMGWYRQAPGKERELVASITSNSGNTYYADSVKGRFTISRDNAKNTVYLQMNSLKPEDTAVYYCAADQLSDEYDYWGQGTQVTVSS	high polyreactivity
QVQLVESGGGLVQAGGSLRLSCAASGRTFTRYAMGLYRPAPGKERELVAAISYIGGRTNYADSVKGRFTISRDNAKKTVYLQMHSLKPEDTAVYYCAASRPWVYYDGLVYWGQGTQVTVTS	high polyreactivity

###

# protocol: yeast display, Sf9 membrane polyspecificity reagent, FACS + sequencing; frameworks hold sequencing errors
assayReadout: polyreactivity (PSR sort gate)

Here is how some sequences turned out for polyreactivity (PSR sort gate).
QVQLVESGGGLVQAGGSLRLSCAASGSTFTTNAMGWYRQAPGKERELVASITWSGGGTNYADSVKGRFTISRDNAKNSVFLQMNSLKPEDTAVYSCADDYDDSHLRSDYWGQGTQVTVSS	low polyreactivity
QVQLVESGGGLVQAGGSLRLSCAASGSTFVNNAMGWYRQAPGKERELVAAISWSGGSTYYADSVKGRFTISRDNAKNTVYLQMNSLNPEDTAVYYCAADGNARAAMDYWGQGTQVTVSS	low polyreactivity
QVQLVESGGGLVQAGGSLRLSCAASGSIFSPYAMGWYRQAPGKERELVAAISRSGRTHYADSVKGRFTISRDNAKNTVYLQMNSLKPEDTAVYYCAAGVVYGYYYWGQGTQVTVSS	high polyreactivity
QVQLVESGGGLVQSGGSLRLSCAASGFIFRWYAMGWYRQAPGKERELVASIDWSGTRTNYADSVKGRFTISRDNAKNTVYLQMNSLKPEDTAVYYCNAVPTSLGETDYDYWGQGTQVTVSS	low polyreactivity

In the following, a different sequence is considered.
Returns the measured polyreactivity (PSR sort gate) for the input sequence. Input: QVQLVESGGGLVQAGGSLRLSCAASGSIFYLYAMGWYRQAPGKERELVASIRWSGGNTYYADSVKGRFTISRDNAKNTVYLQMNSLKPEDTAVYYCAARTSTHGSSYSIRRFGYWGQGTQVTVSS
high polyreactivity

###

# protocol: yeast display, Sf9 membrane polyspecificity reagent, FACS + sequencing; frameworks hold sequencing errors
assayReadout: polyreactivity (PSR sort gate)

Here is how some sequences turned out for polyreactivity (PSR sort gate).
QVQLVESGGGLVQAGGSLRLSCAASGIIFGNYAMGWYRQAPGKERELVAAITNGSSTNYADSVKGRFTISRDNAKNTVYLQMNSLKPEDTAVYYCARDGIGADGYDYWGQGTQVTVSS	low polyreactivity
QVQLVESGGGLVQAGGSLRLSCAASGSTFTINVMGWYRQAPGKERELVAAINGGGRTNYADSVKGRFTISRDNAKNTVYLQMNSLKPEDTAVYYCNARYGNESQGWEDYWGQGTKVTVSS	low polyreactivity
QVQLVESGGGLVQAGGSLRLSCAASGRTFRFYAMGWNRQAPGKERELVAAINWTGGSTYYADSVKGRFTISRDNAKNTVYLQMNSLKPEDTAVYYCAKVQDYRFEYWGQGTQVTVSS	high polyreactivity
QVQLVESGGGLVQAGGSLRLNCAASGSIFTGNAMGWYRQAPGKERELVASITTSTDSTYYADSVKGRFTISRDNAKNTVYLQMNRLKTEDTAVYYCAAEYAVAWKYGLYFYFHFDYWGQGTQVTVSS	low polyreactivity

In the following, a different sequence is considered.
Returns the measured polyreactivity (PSR sort gate) for the input sequence. Input: QVQLVESGGGLVQAGGSLRLSCAASGRIFTYYAMGWYRQAPGKERELVAAISSGGSTYYADSVKGRFTISRDNAKNTVYLQMNSLKPEDTAVYYCAADSIYYFPYDYWGQGTQVTVSS
high polyreactivity

###

# protocol: yeast display, Sf9 membrane polyspecificity reagent, FACS + sequencing; frameworks hold sequencing errors
assayReadout: polyreactivity (PSR sort gate)

Here is how some sequences turned out for polyreactivity (PSR sort gate).
QVQLVESGGGLVQAGGSLRLSCASSGFTFRGYAIGWYRQAPGKERELVAAITGGGSTNYADSVKGRFTISRDNAKNTVYLQMNSLKPEDTAVYYCAADASWALFAWAHYDYWGEGTQVTVSS	low polyreactivity
QVQHVESGGGLVQAGGSLRLSCAASGSIFPDNAMGWYRQAPGQERELVAAIDKGTGSTNYADSVTGRFTLSRDNAKNNVYFQMNSLKPEDTAVYYCAKGWLTPRGGAWYDDYWGQGTHVTVSS	low polyreactivity
QVQLVESGGCLVQAGGSLRLSCAASGSIFGVNAMGGYRQPPGKDRELVASITGGDSTNYADSVKGRFTISRDNAKNTVYLQMNSLKPEDTAVYYCAKDHYYRYEEGDYWGLGTQVTVSS	low polyreactivity
QVQLVESGGGLVQAGGSLRLSSAASGSTFRKNAMGWYRQAPGKERELVASISISGGRTNYADSVKGRFTISRDNAKNTVYLQMNSLKPEDTAVYYCAKQVKSYRTRYTFDYWGQGTQVTVSS	high polyreactivity

Record polyreactivity (PSR sort gate) per entry; entries follow.
1. QVQLVESGGGLVQAGGSLRLSCAASGSTLGRYTMGWSRQAPGKERELVAAIRASGTSTYYADSVKGRFTISRDNAKNTVYLQMNSLKPEDTAVYYCNALQFGTVRLDSWGLGTQVTVSS
2. QVQLVESGGGLVQAGGSLRLNCAASGSIFDKNAMGWYRQAPGKERELVAAISRSGGSTYYADSVKGRFTISRDNAKNTVYLQMNSLKPEVTAVYYCNKYTNGRNFDYWGQGTQVTVSS
3. QVQLVESGGGLVQAGGSLRLSCAASGFIFRVYTMVWYRQAPGKERELVAAISYRGGRTYYADSVKGRFTISRDNAKNTVFLQMNSLKPEDTAVYYCAADRVNREFDYWGQGTQVTVSS
4. QVQLVESGGGLVQAGGSLRLSCAASGRTFARYAMGWYRQAPGKERELVAAISRGGTTNYADSVKGRFTISRDNAKNTVYLQMNSLKPEDTAVYYCNRDFHLIHLSSARLDYWGQGTQVTVSS
5. QVQLVESGGGLVQAGGSLRLSCAASGSIFGYYAMGCYRQAPGKERELDAAISASGGSTYYADSVKGRFTISRDNAKITVYFHMNSLKPEDTAVYYCAAVRSVTYIWARYPYGLEYCGQGTQVTVSS

1: low polyreactivity; 2: high polyreactivity; 3: high polyreactivity; 4: low polyreactivity; 5: high polyreactivity

Record polyreactivity (PSR sort gate) per entry; entries follow.
1. QVQLVESGGGLVQAGGRLRLSCAASGSIMDTNAMGWYRQAPGKERELVARIDIDGSTNYADSVKGRFTISRDNAKKTVYLQMNSLKPEDTAVYYCNKDHSSYGASGYDYWGQGTQVTVSS
2. QVQLVESGGGLVQAGGRLRLSCAASGFIFSYYTMGCYRQAPGKERELVAAIRSSGGSTYADSVKGRFTISRDNAKNTVYLQMNSLNPEDTAVYYGAGGYYWNEPLYWYGDFDYWGQGTQVTVSS

["low polyreactivity", "high polyreactivity"]
